target: 5-hydroxytryptamine receptor 1B (Rattus norvegicus, UniProt P28564); format: cell membranes, Wistar, Cerebral cortex, Membrane; further: in other assays of this panel Not Active means under 50% inhibition at 10 µM
Sequence (P28564 whole entry): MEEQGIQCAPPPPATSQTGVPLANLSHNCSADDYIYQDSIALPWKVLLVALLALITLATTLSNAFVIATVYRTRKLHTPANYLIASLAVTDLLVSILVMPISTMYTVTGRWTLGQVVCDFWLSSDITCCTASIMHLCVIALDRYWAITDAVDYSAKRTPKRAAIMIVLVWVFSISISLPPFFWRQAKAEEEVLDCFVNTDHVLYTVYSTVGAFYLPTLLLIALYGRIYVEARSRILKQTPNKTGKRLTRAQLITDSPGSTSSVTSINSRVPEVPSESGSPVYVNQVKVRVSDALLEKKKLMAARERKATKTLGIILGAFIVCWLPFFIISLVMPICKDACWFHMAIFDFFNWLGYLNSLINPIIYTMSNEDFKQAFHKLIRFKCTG
Property name: IC50

The cases that follow already have their IC50 on record.
>>> result("CCC[C@@H]1C[C@@H](C(=O)N[C@@H]([C@H]2O[C@H](SC)[C@H](O)[C@@H](O)[C@H]2O)[C@@H](C)O)N(C)C1 [LINCOMYCIN]")
"Not Active"
>>> result("CN1C(C(=O)Nc2ccccn2)=C(O)c2ccccc2S1(=O)=O [PIROXICAM]")
"Not Active"
>>> result("COC(=O)[C@H](c1ccccc1Cl)N1CCc2sccc2C1 [CLOPIDOGREL]")
"Not Active"
>>> result("CCCC[C@@H](CC)COC(=O)c1ccccc1C(=O)OC[C@@H](CC)CCCC [BIS(2-ETHYLHEXYL)PHTHALATE]")
"Not Active"

Lab note: next molecule to report on.
Write down measured IC50 (5-hydroxytryptamine receptor 1B (Rattus norvegicus, UniProt P28564)) for this molecule. CC[C@@]1(O)C(=O)OCc2c1cc1n(c2=O)Cc2cc3ccccc3nc2-1 [CAMPTOTHECIN] Not Active
